Test system: c-Abl (mouse)
assay.method.text: phosphorylation enrichment, bacterial display (enrichment ratio); higher = better substrate or ligand; peptides without Tyr show the background;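 note: 11-residue human phosphosite peptides and single-mutation variants displayed on the E. coli surface, counted by deep sequencing, each peptide's frequency after selection divided by its frequency in the unselected input library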;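 note: frequency after pTyr selection over input frequency; kinase dosed for 20-30% of maximal phosphorylation in three min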
In this section, each of the sequences is paired with its reported phosphorylation enrichment.

Previously resolved entries follow.
| monomer.sequence | phosphorylation enrichment |
| --- | --- |
| CYVYYYSYLLK [PTEN_Y178_R173C] | 1.66 |
| SARFHYLMAEK [LDHB_Y173_R172H] | 0.372 |
| FTNELYMMMRD [FGFR1_Y730_C725Y_YF] | 0.57 |

Value of measured phosphorylation enrichment for the entry KVVVPYEPPEV [TP53_Y220_S215K] : 1.02

Value of measured phosphorylation enrichment for the entry KFFRVYQGQQP [MUTYH_Y494_V490F] : 0.652

Value of measured phosphorylation enrichment for the entry RIVTTYIRERE [DNM2_Y463] : 0.741

---

Tested on: AncSZ
assay.method.text: phosphorylation enrichment, bacterial display (enrichment ratio); higher = better substrate or ligand; peptides without Tyr show the background
In this section, each of the sequences is paired with its reported phosphorylation enrichment.
Form: value (number only, do not type unit).

| monomer.sequence | phosphorylation enrichment |
| --- | --- |
| LNERHYGALIG [BPGM_Y92] | 0.534 |
| SDFFAYSPVRE [H6PD_Y449_YF] | 0.928 |
| ELTSVYDSRAR [SENP1_Y349] | 0.585 |
| TSYSGYRCHRH [NKAPL_Y94_Y96C] | 0.694 |
| MEVEQYIFVKC [CYBB_Y324_G322E] | 1.74 |
| RFLERYIYNRE [HLA-DPB1_Y57] | 0.77 |
| GVRYTYTIDGS [DCX_Y105_I104T] | 0.986 |
| VDHFGYNKDDK [APOB_Y740_T741N] | 1.02 |
| GEDEPYSEPFA [APBA1_Y183_YF] | 1.34 |
| CTLTHYKSAVK [ASNS_Y555_R550C] | 0.807 |

Value of measured phosphorylation enrichment for the entry TISPFYRQSLF [CRYAA_Y48_YF] : 0.648

Value of measured phosphorylation enrichment for the entry "KINKMYSDHAM" : 0.495

Value of measured phosphorylation enrichment for the entry PDGREYIYVDP [PDGFRA_Y572_H570R] : 3.36

Value of measured phosphorylation enrichment for the entry KNNDGNIDYAE [MCFD2_Y135_Y135N] : 1.13

---

tested.target: EPHB1 (UniProt P54762)
Sequence (P54762 whole entry, looked up): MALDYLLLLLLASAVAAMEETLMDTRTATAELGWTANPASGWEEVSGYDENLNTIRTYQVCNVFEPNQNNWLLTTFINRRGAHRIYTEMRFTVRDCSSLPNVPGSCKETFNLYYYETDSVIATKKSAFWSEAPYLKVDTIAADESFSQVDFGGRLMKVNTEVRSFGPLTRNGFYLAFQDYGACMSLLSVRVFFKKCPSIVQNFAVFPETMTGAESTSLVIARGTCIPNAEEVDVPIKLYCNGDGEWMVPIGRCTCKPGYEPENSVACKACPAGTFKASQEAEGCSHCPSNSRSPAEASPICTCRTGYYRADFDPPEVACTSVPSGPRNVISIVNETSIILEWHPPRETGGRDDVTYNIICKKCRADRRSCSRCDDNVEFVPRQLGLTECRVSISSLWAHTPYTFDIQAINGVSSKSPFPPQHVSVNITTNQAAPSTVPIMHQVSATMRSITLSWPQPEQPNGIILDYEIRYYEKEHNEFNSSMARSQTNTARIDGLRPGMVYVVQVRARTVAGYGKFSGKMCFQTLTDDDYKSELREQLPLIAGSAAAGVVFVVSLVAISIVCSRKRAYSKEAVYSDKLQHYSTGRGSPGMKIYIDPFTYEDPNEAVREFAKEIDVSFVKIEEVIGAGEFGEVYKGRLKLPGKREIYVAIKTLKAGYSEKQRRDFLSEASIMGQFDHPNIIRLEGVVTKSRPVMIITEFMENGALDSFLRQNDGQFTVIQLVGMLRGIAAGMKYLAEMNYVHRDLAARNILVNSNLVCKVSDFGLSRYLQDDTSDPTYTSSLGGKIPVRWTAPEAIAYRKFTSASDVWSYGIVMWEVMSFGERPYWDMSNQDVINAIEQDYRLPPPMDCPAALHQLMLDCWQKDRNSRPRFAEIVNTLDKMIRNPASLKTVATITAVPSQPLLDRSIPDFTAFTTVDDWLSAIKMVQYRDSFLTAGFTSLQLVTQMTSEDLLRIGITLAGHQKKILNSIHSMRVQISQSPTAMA
assay.method.text: phosphorylation enrichment, bacterial display (enrichment ratio); higher = better substrate or ligand; peptides without Tyr show the background
In this section, each of the sequences is paired with its reported phosphorylation enrichment.
Form: value (number only, do not type unit).

| monomer.sequence | phosphorylation enrichment |
| --- | --- |
| HQKKPYCHAHN [NRAP_Y53] | 1.08 |
| GTYEDYVEGLR [MYL6_Y89] | 1.31 |
| ILGRFYERGSI [PAX5_Y73_T75R_YF] | 0.392 |
| LSTPEYGPKLK [TBC1D14_Y46_A43T] | 0.47 |
| SCRENYSYSEE [LEMD3_Y258_D260Y] | 0.66 |

Reported phosphorylation enrichment (EPHB1 (UniProt P54762)) for entry QSKGIYFVQLE [MGAT4B_Y262_YF] is 0.972
